target: UniProt Q8IJX0; experiment: IC50 for competition of protein binding to Kinobeads; settings: assay detail: Kinobeads competition in P. falciparum blood-stage lysate;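 also: native unpurified kinases from lysate captured on beads bearing immobilized kinase inhibitors, with bead-bound kinases quantified by mass spectrometry across compound doses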
Attribute measured: IC50

Record request: IC50 value, item O=c1[nH]c2ccc(Cl)cc2c(NC2CN3CCC2CC3)c1-c1nc2ccccc2[nH]1 (stereo unspecified)
> 20 µM

// provenance: the supplement of paper PMC13386468
